# System: SF-268 CNS
# Assay name: NCI tumour cell line growth inhibition, 48 h; in the data active means GI50 below about 0.43 µM; inactive means the rest
Outcomes: active, inactive

# Compound, Qualitative label
measured = [
    ("CCN1C(=O)N(CC)C2Nn3c(s/c(=C4\\C(=O)N(C)c5ccccc54)c3=O)=NC21 (centres undefined)", "inactive"),
    ("COc1ccc(Cc2cnc(NC(=O)c3ccc4c(c3)OCCO4)s2)cc1", "active"),
    ("N.N.NCCCCCCCCCN.O=C([O-])CC(=O)[O-].O=C([O-])CC(=O)[O-].[Pt+4].[Pt+4]", "inactive"),
    ("O=c1[nH]c(=O)n([C@H]2CCCO2)cc1F", "inactive"),
]
